# reported Ulcer Index (%); entries follow
System: gastric necrosis in rats
Assay: Action to gastric necrosis in rats (absolute ethanol)
Format: in vivo, Male Sprague-Dewley rats
Settings: 50 mg/kg, po; 1 hour before absolute ethanol; inhibition ratio
Numeric answer only, unit % assumed.

Below, each entry is followed by its recorded Ulcer Index (%) result.
compound	unit info	Ulcer Index (%)
CC(C)=CCCC(C)=CCCC(C)=CCCC(C)=CCCC(C)=CCCC(C)=CCCC(C)=CCCC(C)=CCCC(C)=CCCC(C)=CCSCCNC(=O)C1(C)CCC2(C)CCC3(C)C(=CC(=O)C4C5(C)CCC(OC(=O)C=CC(=O)O)C(C)(C)C5CCC43C)C2C1 (stereo not shown)	%	10.9
CC(C)=CCCC(C)=CCCC(C)=CCCC(C)=CCCC(C)=CCCC(C)=CCCC(C)=CCCC(C)=CCCC(C)=CCSCCNC(=O)C1(C)CCC2(C)CCC3(C)C(=CCC4C5(C)CCC(OC(=O)C=CC(=O)O)C(C)(C)C5CCC43C)C2C1 (stereo not shown)	%	20.6
CC(C)=CCCC(C)=CCCC(C)=CCCC(C)=CCSCCNC(=O)[C@@]1(C)CC[C@]2(C)CC[C@]3(C)C(=CC[C@@H]4[C@@]5(C)CC[C@H](OC(=O)/C=C\C(=O)O)C(C)(C)[C@@H]5CC[C@]43C)[C@@H]2C1	%	66.1

Now, please, on to the next compound.
// query Ulcer Index (%) value for entry CC(C)=CCCC(C)=CCCC(C)=CCCC(C)=CCCC(C)=CCCC(C)=CCCC(C)=CCCC(C)=CCCC(C)=CCCC(C)=CCSCCNC(=O)C1(C)CCC2(C)CCC3(C)C(=CCC4C5(C)CCC(OC(=O)C=CC(=O)O)C(C)(C)C5CCC43C)C2C1 (stereo not shown)
// result -9.5

---

System: gastric necrosis in rats
Assay: Action to gastric necrosis in rats (absolute ethanol)
Format: in vivo, Male Sprague-Dewley rats
Details: 25 mg/kg, po; 1 hour before absolute ethanol; inhibition ratio
Property: Ulcer Index (%); scope: individual compounds
Report the figure in % without appending any unit label.

Before answering, review these 3 worked examples.
compound	unit info	recorded result
CC(C)=CCCC(C)=CCCC(C)=CCCC(C)=CCCC(C)=CCCC(C)=CCCC(C)=CCCC(C)=CCCC(C)=CCCC(C)=CCSCCNC(=O)C1(C)CCC2(C)CCC3(C)C(=CCC4C5(C)CCC(OC(=O)C=CC(=O)O)C(C)(C)C5CCC43C)C2C1 (stereo not shown) [Compound 4e]	%	21.3
CC(C)=CCCC(C)=CCCC(C)=CCCC(C)=CCCC(C)=CCCC(C)=CCCC(C)=CCCC(C)=CCCC(C)=CCCC(C)=CCSCCNC(=O)C1(C)CCC2(C)CCC3(C)C(=CC(=O)C4C5(C)CCC(OC(=O)C=CC(=O)O)C(C)(C)C5CCC43C)C2C1 (stereo not shown) [Compound 4k]	%	58.7
CC(C)=CCCC(C)=CCCC(C)=CCCC(C)=CCSCCNC(=O)[C@@]1(C)CC[C@]2(C)CC[C@]3(C)C(=CC[C@@H]4[C@@]5(C)CC[C@H](OC(=O)/C=C\C(=O)O)C(C)(C)[C@@H]5CC[C@]43C)[C@@H]2C1 [Compound 4c]	%	43.3

// query Recorded Ulcer Index (%) for CC(C)=CCCC(C)=CCCC(C)=CCCC(C)=CCCC(C)=CCCC(C)=CCCC(C)=CCCC(C)=CCCC(C)=CCSCCNC(=O)C1(C)CCC2(C)CCC3(C)C(=CCC4C5(C)CCC(OC(=O)C=CC(=O)O)C(C)(C)C5CCC43C)C2C1 (stereo not shown) [Compound 4d] with gastric necrosis in rats, please?
// result 31.7
